method_description: first-order primary biodegradation rate constant k (sorption-corrected, fDis-corrected) (d-1); higher = faster biodegradation
experimental_parameters: river segment: Germany (DE) T_Contam; incubation temperature 24 °C
parameter_measured: first-order primary biodegradation rate constant k
Kindly provide the number alone.

{"compound": "NC(=O)c1cn(Cc2c(F)cccc2F)nn1 [Rufinamide]", "result_number": 1.31}
{"compound": "CC(C)N(C(=O)CCl)c1ccccc1 [Propachlor]", "result_number": 0.812}
{"compound": "COc1ccc(NS(=O)(=O)c2ccc(N)cc2)nn1 [Sulfamethoxypyridazine]", "result_number": 0.382}
{"compound": "CN(C)CCN1C(=O)c2ccccc2N(C)c2ccccc21 [Dibenzepin]", "result_number": 0.567}
{"compound": "Cc1ccc(C)c(OCCCC(C)(C)C(=O)O)c1 [Gemfibrozil]", "result_number": 0.278}
{"compound": "CC(C(=O)O)c1cccc(C(=O)c2ccccc2)c1 (stereo unspecified) [Ketoprofen]", "result_number": 0.441}
{"compound": "CC(=O)Nc1ccc(O)cc1 [Paracetamol]", "result_number": 3.16}
{"compound": "C/C(=N\\C#N)N(C)Cc1ccc(Cl)nc1 [Acetamiprid]", "result_number": 0.217}
{"compound": "CCc1cccc(C)c1N(C(=O)CCl)C(C)COC (stereo unspecified) [Metolachlor]", "result_number": 0.0409}
{"compound": "Nc1nnc(-c2cccc(Cl)c2Cl)c(N)n1 [Lamotrigine]", "result_number": 0.0823}

Kindly consider the entry below.
**Q:** For the compound CCNc1nc(NC(C)(C)C)nc(SC)n1 [Terbutryn] , report first-order primary biodegradation rate constant k.
**A:** 0.0714

###

method_description: first-order primary biodegradation rate constant k (sorption-corrected, fDis-corrected) (d-1); higher = faster biodegradation
experimental_parameters: river segment: Spain (ES) L_Contam; incubation temperature 24 °C
Counter-ions that a name gives are not always drawn.
Quick rule for you: first-order primary biodegradation rate constant k at 0.3 or higher means true (1), lower means false (0).

Past entries and their recorded results:
{"compound": "C/C(=N\\C#N)N(C)Cc1ccc(Cl)nc1 [Acetamiprid]", "qualitative_label": "false (0)"}
{"compound": "CC(C)NCC(O)COc1ccc(COCCOC(C)C)cc1 (stereo not drawn) [Bisoprolol]", "qualitative_label": "false (0)"}
{"compound": "CCc1cccc(C)c1N(C(=O)CCl)C(C)COC (stereo not drawn) [Metolachlor]", "qualitative_label": "false (0)"}
{"compound": "CCOC(=O)CC(O)(CC(=O)OCC)C(=O)OCC [Triethyl citrate]", "qualitative_label": "true (1)"}

**Q:** Tell me whether first-order primary biodegradation rate constant k is at least 0.3 here: NC(=O)c1cn(Cc2c(F)cccc2F)nn1 [Rufinamide]
**A:** true (1)

**Q:** Has CC(C)N(C(=O)COc1nnc(C(F)(F)F)s1)c1ccc(F)cc1 [Flufenacet] a recorded first-order primary biodegradation rate constant k greater than or equal to 0.3?
**A:** false (0)

**Q:** Textbook exercise: given the entry O=C1Nc2ccc(Cl)cc2C(c2ccccc2)=NC1O (stereo not drawn) [Oxazepam] , state whether its first-order primary biodegradation rate constant k is greater than or equal to 0.3.
**A:** false (0)

###

method_description: first-order primary biodegradation rate constant k (sorption-corrected, fDis-corrected) (d-1); higher = faster biodegradation
experimental_parameters: river segment: Switzerland (CH) U_Pris; incubation temperature 17 °C
Output schema: class label derived from first-order primary biodegradation rate constant k. Mapping: lower band: < 0.08; central band: ≥ 0.08 and < 0.4; upper band: ≥ 0.4

Example entries and their recorded answers appear below.
{"molecule": "CC(C)NCC(O)c1ccc(NS(C)(=O)=O)cc1 (stereo not drawn)", "qualitative_label": "central band"}
{"molecule": "C/C(=N\\C#N)N(C)Cc1ccc(Cl)nc1", "qualitative_label": "central band"}
{"molecule": "COCCc1ccc(OCC(O)CNC(C)C)cc1 (stereo not drawn)", "qualitative_label": "upper band"}
{"molecule": "CC(C)(Oc1ccc(CCNC(=O)c2ccc(Cl)cc2)cc1)C(=O)O [Bezafibrate]", "qualitative_label": "upper band"}
{"molecule": "CC(C)NCC(O)COc1cccc2ccccc12 (stereo not drawn)", "qualitative_label": "central band"}

**Q:** Which bin should I file CN(C)CCN1C(=O)c2ccccc2N(C)c2ccccc21 [Dibenzepin] under?
**A:** lower band

**Q:** Looking at CC(C)NCC(O)COc1ccc(CC(N)=O)cc1 (stereo not drawn) , which class would you pick?
**A:** upper band

**Q:** Looking at "Cc1cccc(Nc2ccccc2C(=O)O)c1C" , which class would you pick?
**A:** upper band

**Q:** Form field 'band' for NS(=O)(=O)c1cc(C(=O)O)c(NCc2ccco2)cc1Cl [Furosemide]
**A:** central band

**Q:** Band for the recorded first-order primary biodegradation rate constant k of NC(=O)c1cn(Cc2c(F)cccc2F)nn1 [Rufinamide] ?
**A:** upper band

###

first-order primary biodegradation rate constant k listing for selected compounds.
method_description: first-order primary biodegradation rate constant k (sorption-corrected, fDis-corrected) (d-1); higher = faster biodegradation
experimental_parameters: river segment: Switzerland (CH) U_Contam; incubation temperature 17 °C
I'd appreciate a reply containing only the number, no unit.

{"compound": "CC(C)(Oc1ccc(Cl)cc1)C(=O)O", "result_number": 0.034}
{"compound": "Cc1ccc(-c2nc3ccc(C)cn3c2CC(=O)N(C)C)cc1", "result_number": 0.0604}
{"compound": "Cc1cccc(Nc2ccccc2C(=O)O)c1C", "result_number": 1.41}

**Q:** Write down first-order primary biodegradation rate constant k measured for item "CC1(C)C[C@@H]1C(=O)N/C(=C\CCCCSC[C@H](N)C(=O)O)C(=O)O"
**A:** 7.54

**Q:** Check the records and state first-order primary biodegradation rate constant k for CCN1CCCC1CNC(=O)c1cc(S(=O)(=O)CC)c(N)cc1OC (stereo unspecified) [Amisulpride]
**A:** 0.00879

**Q:** Give reported first-order primary biodegradation rate constant k value for "c1ccc2[nH]nnc2c1"
**A:** 0.0122

**Q:** Please give the documented first-order primary biodegradation rate constant k of "NCC1(CC(=O)O)CCCCC1"
**A:** 0.0703

###

method_description: first-order primary biodegradation rate constant k (sorption-corrected, fDis-corrected) (d-1); higher = faster biodegradation
experimental_parameters: river segment: Germany (DE) T_Contam; incubation temperature 24 °C
Each entry below lists one item and its recorded first-order primary biodegradation rate constant k value.
The answer should be a number; do not append a unit.

For orientation, consider the following solved cases.
{"compound": "C#CCN(C)Cc1ccccc1", "result_number": 0.425}
{"compound": "CCNc1nc(Cl)nc(NC(C)C)n1", "result_number": 0.136}
{"compound": "COCC(C)N(C(=O)CCl)c1c(C)csc1C (configuration not stated)", "result_number": 0.036}
{"compound": "CCN1CCCC1CNC(=O)c1cc(S(=O)(=O)CC)c(N)cc1OC (configuration not stated) [Amisulpride]", "result_number": 0.266}
{"compound": "CCN(CC)CC(=O)Nc1c(C)cccc1C", "result_number": 0.00344}

**Q:** Tell us which first-order primary biodegradation rate constant k value is on record for CCOC(=O)C1CC(=O)C(=C(O)C2CC2)C(=O)C1 (configuration not stated)
**A:** 0.461

**Q:** Supply recorded first-order primary biodegradation rate constant k for "Cc1ccc(-c2nc3ccc(C)cn3c2CC(=O)N(C)C)cc1" here.
**A:** 0.672

**Q:** Name the recorded first-order primary biodegradation rate constant k of the compound listed here: "c1ccc2[nH]nnc2c1"
**A:** 0.0507

**Q:** Recall and state the measured first-order primary biodegradation rate constant k for COc1cccc(C2(O)CCCCC2CN(C)C)c1 (configuration not stated) .
**A:** 0.058

###

Parameter first-order primary biodegradation rate constant k: see the listing below.
method_description: first-order primary biodegradation rate constant k (sorption-corrected, fDis-corrected) (d-1); higher = faster biodegradation
experimental_parameters: river segment: Greece (EL) G_Pris; incubation temperature 19 °C
Keep it simple and answer with nothing but the number.

{"compound": "CN(C)CCN1C(=O)c2ccccc2N(C)c2ccccc21 [Dibenzepin]", "result_number": 0.127}
{"compound": "c1ccc([C@H]2CN3CCSC3=N2)cc1", "result_number": 0.133}
{"compound": "CCOC(=O)C1CC(=O)C(=C(O)C2CC2)C(=O)C1 (centres undefined)", "result_number": 0.252}

**Q:** Return first-order primary biodegradation rate constant k (reported value) for this compound: CC(C)NCC(O)COc1cccc2ccccc12 (centres undefined)
**A:** 0.0227

**Q:** Given "CCCCC(=O)N(Cc1ccc(-c2ccccc2-c2nnn[nH]2)cc1)[C@H](C(=O)O)C(C)C" , respond with its first-order primary biodegradation rate constant k.
**A:** 0.275

**Q:** # return recorded first-order primary biodegradation rate constant k for input "COC(=O)Nc1nc2ccccc2[nH]1"
**A:** 0.0594
